The measured values listed here are drawn from ChEMBL document CHEMBL1857833.

Assay: DNDI: Cytotoxicity against L929 mouse fibroblasts, 72 hour.
Assay type: toxicity, cell-based
Conditions: mouse, L929 mouse fibroblasts
Entries and their IC50 at 72 h values follow.

Answered examples (2):
Input line: // lookup IC50 at 72 h for `O/N=C(\NC1CCCCC1)c1cccnc1Oc1cc(Cl)ccc1Cl`
Output line: > 10 µg/mL

Input line: // lookup IC50 at 72 h for `Cc1cc(NCCCN2CCCC2)n2nc(-c3cccc(F)c3)cc2n1`
Output line: > 10 µg/mL

Others:
Input line: // lookup IC50 at 72 h for Cc1ccc(CNC(c2nc(-c3ccccc3)c(N3CCCCC3)o2)C2CC2)cc1 (stereo not given)
Output line: > 10 µg/mL

Input line: // lookup IC50 at 72 h for `c1ccc2c(Oc3nc(NCCN4CCCC4)nc4ccsc34)cccc2c1`
Output line: > 10 µg/mL

Input line: // lookup IC50 at 72 h for Cc1ccc(CNC(c2ccccc2)c2nc(-c3ccccc3)c(N3CCCCC3)o2)cc1 (stereo not given)
Output line: > 10 µg/mL

Input line: // lookup IC50 at 72 h for `CCCCc1ccc(-c2nc(CN3CCN(C(=O)OC(C)(C)C)CC3)co2)cc1`
Output line: > 10 µg/mL

Input line: // lookup IC50 at 72 h for `O/N=C(\Nc1cccc(F)c1)c1cccnc1Oc1cc(Cl)ccc1Cl`
Output line: 7.69 µg/mL

Input line: // lookup IC50 at 72 h for `O/N=C(\NC1CCCCC1)c1ccccc1-c1ccccc1`
Output line: > 10 µg/mL

Input line: // lookup IC50 at 72 h for Cc1cccc(CNC(c2ccccc2)c2nc(Cc3ccccc3)c(N3CCOCC3)o2)c1 (stereo not given)
Output line: > 10 µg/mL

Input line: // lookup IC50 at 72 h for COc1ccc(-c2nc(CNCCC3CCCN3C)c(C)o2)cc1 (stereo not given)
Output line: > 10 µg/mL

----------
Experiment: DNDI: in vitro intrinsic clearance in mouse liver microsomes at a concentration of 10uM
Assay type: ADME, Microsome
Details: read-out: CLint in vitro
quantity_name: microsomal CLint at 10 µM (µL/min/mg)
Express it in µL/min/mg; write the number only.

Answered examples (5):
Input line: // lookup microsomal CLint at 10 µM for `O/N=C(\NCC1CC1)c1ccccc1-c1ccccc1`
Output line: 117

Input line: // lookup microsomal CLint at 10 µM for `O/N=C(/NC1CCCCC1)c1cccnc1Oc1ccccc1Cl`
Output line: 211

Input line: // lookup microsomal CLint at 10 µM for `COc1ccc(/C(=N/O)NC2CCCCC2)cc1`
Output line: 544

Input line: // lookup microsomal CLint at 10 µM for `CCc1ccccc1Oc1ncccc1/C(=N\O)NC1CCCCC1`
Output line: 140

Input line: // lookup microsomal CLint at 10 µM for CCCCCC(C)NCc1coc(-c2ccc(OCCCC)cc2)n1 (stereo not drawn)
Output line: 15

Others:
Input line: // lookup microsomal CLint at 10 µM for `O/N=C(\NC1CCCC1)c1ccccc1-c1ccccc1`
Output line: 243

Input line: // lookup microsomal CLint at 10 µM for `CCOc1ccc(-c2nc(CNC[C@@H]3CC[C@H]4C[C@@H]3C4(C)C)co2)cc1`
Output line: 35

Input line: // lookup microsomal CLint at 10 µM for CCCCCC(C)NCc1coc(-c2ccc(Cl)cc2)n1 (stereo not drawn)
Output line: 17

----------
Assay: DNDI: Cytotoxicity against L929 mouse fibroblasts, 72 hour.
Type: toxicity, cell-based
Conditions: mouse, L929 mouse fibroblasts
Entries and their IC50 at 72 h values follow.
Express it in µg/mL; write the number only.

Answered examples (5):
Input line: // lookup IC50 at 72 h for `CCCCc1ccc(-c2nc(CNCC(C)(C)CN(C)C)co2)cc1`
Output line: 4.92

Input line: // lookup IC50 at 72 h for CCCCCC(C)NCc1ccc(-c2ccccc2)s1 (stereo unspecified)
Output line: 7.16

Input line: // lookup IC50 at 72 h for CCCCCC(C)NCc1nc(-c2ccccc2F)oc1C (stereo unspecified)
Output line: 8.59

Input line: // lookup IC50 at 72 h for `CCCCc1ccc(-c2nc(CN[C@H](C)c3ccccc3)co2)cc1`
Output line: 3.32

Input line: // lookup IC50 at 72 h for CCCCCC(C)NCc1coc(-c2ccc(-c3ccccc3)cc2)n1 (stereo unspecified)
Output line: 1.83

Others:
Input line: // lookup IC50 at 72 h for CCCCCC(C)NCc1coc(-c2ccc(C3CCCCC3)cc2)n1 (stereo unspecified)
Output line: 0.67

Input line: // lookup IC50 at 72 h for CCCCCC(C)NCc1coc(-c2ccc(F)cc2F)n1 (stereo unspecified)
Output line: 12.4

Input line: // lookup IC50 at 72 h for `Brc1ccc(-c2nc(CNC3CCCCCC3)co2)cc1`
Output line: 15.7

Input line: // lookup IC50 at 72 h for CCCCCC(C)NCc1coc(-c2ccc(OCC)cc2)n1 (stereo unspecified)
Output line: 5.27

Input line: // lookup IC50 at 72 h for CCCCCC(C)NCc1coc(-c2ccc3ccccc3c2)n1 (stereo unspecified)
Output line: 5.65

Input line: // lookup IC50 at 72 h for `CCN(CC)Cc1coc(-c2ccc(Cl)cc2)n1`
Output line: 39.5

Input line: // lookup IC50 at 72 h for CCCCCC(C)NCc1coc(-c2ccc(SC(F)(F)F)cc2)n1 (stereo unspecified)
Output line: 3.64

Input line: // lookup IC50 at 72 h for `CCCCc1ccc(-c2nc(CNCCCN3CCCC3)co2)cc1`
Output line: 6.03

Input line: // lookup IC50 at 72 h for `CCCCOc1ccc(-c2nc(CNCC(C)(C)C)co2)cc1`
Output line: 1.8

Input line: // lookup IC50 at 72 h for CCCCCC(C)NCc1coc(-c2ccc(OCc3ccc(F)cc3)cc2)n1 (stereo unspecified)
Output line: 0.95

Input line: // lookup IC50 at 72 h for `CCCCc1ccc(-c2nc(CNCCCn3ccnc3)co2)cc1`
Output line: 0.66

Input line: // lookup IC50 at 72 h for CCCCCc1ccc(-c2nc(CNC(C)CCCCC)co2)cc1 (stereo unspecified)
Output line: 1.01

Input line: // lookup IC50 at 72 h for CCCCCC(C)NCc1coc(-c2ccc(Oc3ccc(C)cc3)cc2)n1 (stereo unspecified)
Output line: 1.42

Input line: // lookup IC50 at 72 h for CCCCCC(C)NCc1coc(-c2cc(OC)cc(OC)c2)n1 (stereo unspecified)
Output line: 4.75

----------
Entries and their IC50 at 72 h values follow.
Experiment: DNDI: Cytotoxicity against L929 mouse fibroblasts, 72 hour.
Format: toxicity, cell-based
Conditions: mouse, L929 mouse fibroblasts

Answered examples (4):
Input line: // lookup IC50 at 72 h for `CN(C)CC(C)(C)CNc1cc(-c2ccccc2)nc2cc(-c3ccc(F)cc3)nn12`
Output line: > 10 µg/mL

Input line: // lookup IC50 at 72 h for `CC(C)(C)OC(=O)N1CCN(c2cc(-c3ccccc3)nc3cc(-c4ccc(F)cc4)nn23)CC1`
Output line: > 10 µg/mL

Input line: // lookup IC50 at 72 h for CC1CC(NCc2coc(-c3sccc3Cl)n2)CC(C)(C)C1 (stereo not given)
Output line: > 50 µg/mL

Input line: // lookup IC50 at 72 h for CCC(C)C(NCc1ccccc1OC)c1nc(-c2ccccc2)c(N2CCOCC2)o1 (stereo not given)
Output line: > 10 µg/mL

# ---- query compound ----
Input line: // lookup IC50 at 72 h for `COc1ccc(/C(=N/O)NC2CCCCC2)cc1`
Output line: > 10 µg/mL

----------
Experiment: in vitro
Conditions: human, liver microsomes, t (1 / 2)
Description: DNDI: half life in human liver microsomes at a concentration of 1uM
Entries and their half-life at 1 µM values follow.
Express it in min; write the number only.

Answered examples (3):
Input line: // lookup half-life at 1 µM for `CCCCOc1ccc(-c2nc(CNC3CCCCCC3)co2)cc1`
Output line: 23

Input line: // lookup half-life at 1 µM for `COC/C(=N/O)c1ccc(OC)cc1`
Output line: 315

Input line: // lookup half-life at 1 µM for `CCCCc1ccc(-c2nc(CNC[C@@H]3CC[C@H]4C[C@@H]3C4(C)C)co2)cc1`
Output line: 39

# ---- query molecule ----
Input line: // lookup half-life at 1 µM for `O/N=C(\Nc1ccccc1)c1ccccc1-c1ccccc1`
Output line: 112

----------
Assay: DNDI: % of compound remaining in rat S9 microsomes at a concentration of 1uM
Format: ADME, subcellular, Liver, S9 fraction
Entries and their remaining at 1 µM values follow.
Express it in %; write the number only.

Answered examples (3):
Input line: // lookup remaining at 1 µM for CCCCc1ccc(-c2nc(CNCCC3CCCN3C)co2)cc1 (centres undefined)
Output line: 3.27

Input line: // lookup remaining at 1 µM for `COc1cc(C)ccc1Oc1ncccc1/C(=N/O)NC1CCCCC1`
Output line: 0.111

Input line: // lookup remaining at 1 µM for `COc1ccc(/C(=N/O)Nc2cccc(C(F)(F)F)c2)cc1`
Output line: 0

# ---- query compound ----
Input line: // lookup remaining at 1 µM for `O/N=C(\NC1CCCCC1)c1ccccc1-c1ccccc1`
Output line: 0
